# System: Setaria faberi (SETFA)
# experimentNotes: Pre-emergence glasshouse herbicide test, Setaria faberi
# Assay type: in vivo
# recordedConditions: 1000 g/h, evaluated after 13 days, five point scale
percentage damage caused to the plant, PRE Application SETFA listing for selected compounds.

Below are worked cases with known answers.
In [3]: df
Out[3]:
                    compoundstructurestring       obsvalue
0  CCn1nnnc1NC(=O)c1nn2cnn(-c3ccc(C(F)(F)F)cc3)c2nc1=O  5 (5=80-100%)
1  Cn1nnnc1NC(=O)c1nn2cnn(-c3cccc(Cl)c3)c2nc1=O  5 (5=80-100%)
2  COc1cccc(-n2ncn3nc(C(=O)C4C(=O)CCCC4=O)c(=O)nc23)c1  5 (5=80-100%)

Then this compound:
Provide percentage damage caused to the plant, PRE Application SETFA, tested on Setaria faberi (SETFA), for O=C(Nc1nnnn1-c1ccccc1)c1nn2cnn(-c3ccccc3)c2nc1=O . 2 (2=20-39%)
